CONDITIONS_USED: in n-butanol, 308.15 K
EXPERIMENTAL_ENDPOINT: solubility (mole fraction)
API doc: respond with a numeric literal and nothing else, no unit.

Please look up its solubility (mole fraction): `NC(=O)c1ccc([N+](=O)[O-])cc1`
0.00144

====

CONDITIONS_USED: in ethanol, 318.15 K
EXPERIMENTAL_ENDPOINT: solubility (mole fraction)
Field format: numeric only.

Which solubility (mole fraction) reading was recorded for the compound `NC(=O)c1ccc([N+](=O)[O-])cc1` ?
0.00616

====

CONDITIONS_USED: in ethyl acetate, 318.15 K
EXPERIMENTAL_ENDPOINT: solubility (mole fraction)
Lab note: write the figure by itself, no unit.

Suppose we examine the compound `NC(=O)c1ccc([N+](=O)[O-])cc1` ; what solubility (mole fraction) value has been reported?
0.0086

====

CONDITIONS_USED: in isopropanol, 283.15 K
EXPERIMENTAL_ENDPOINT: solubility (mole fraction)
Give a plain numeric answer without units written out.

Need solubility (mole fraction), item `NC(=O)c1ccc([N+](=O)[O-])cc1`
0.00127

====

CONDITIONS_USED: in acetonitrile, 328.15 K
EXPERIMENTAL_ENDPOINT: solubility (mole fraction)
Could you keep your reply to the number by itself?

Can you look up the measured solubility (mole fraction) of `NC(=O)c1ccc([N+](=O)[O-])cc1` for me?
0.00396

====

CONDITIONS_USED: in isobutanol, 288.15 K
EXPERIMENTAL_ENDPOINT: solubility (mole fraction)
The reply should be a number, written without any unit.

Give its solubility (mole fraction) value. Item: `NC(=O)c1ccc([N+](=O)[O-])cc1`
0.000942

====

CONDITIONS_USED: in NMP, 313.15 K
EXPERIMENTAL_ENDPOINT: solubility (mole fraction)
Number only, no unit.

What value of solubility (mole fraction) has been reported for the following compound? `NC(=O)c1ccc([N+](=O)[O-])cc1`
0.108

====

CONDITIONS_USED: in ethyl acetate, 328.15 K
EXPERIMENTAL_ENDPOINT: solubility (mole fraction)
In your answer, state the number alone without any accompanying words.

I am curious: what solubility (mole fraction) value has been reported for `NC(=O)c1ccc([N+](=O)[O-])cc1` ?
0.0122

====

CONDITIONS_USED: in acetonitrile, 288.15 K
EXPERIMENTAL_ENDPOINT: solubility (mole fraction)
In your answer, state the number alone without any accompanying words.

Record request: solubility (mole fraction) value, item `NC(=O)c1ccc([N+](=O)[O-])cc1`
0.000806

====

CONDITIONS_USED: in isopropanol, 298.15 K
EXPERIMENTAL_ENDPOINT: solubility (mole fraction)
Quick one: just the number, no unit, thanks!

Consider the compound shown here: `NC(=O)c1ccc([N+](=O)[O-])cc1` What is its recorded solubility (mole fraction)?
0.0023

====

CONDITIONS_USED: in acetonitrile, 318.15 K
EXPERIMENTAL_ENDPOINT: solubility (mole fraction)
Answer using only a numeral; do not append any unit.

Data request, read-out solubility (mole fraction), for `NC(=O)c1ccc([N+](=O)[O-])cc1`
0.0028

====

CONDITIONS_USED: in isobutanol, 323.15 K
EXPERIMENTAL_ENDPOINT: solubility (mole fraction)
Format: numeric value only, no unit, no commentary.

Give the measured solubility (mole fraction) of `NC(=O)c1ccc([N+](=O)[O-])cc1` .
0.00403
